# ASSAY_NOTES: Oral bioavailability in Wistar Han rat at 3 mg/kg measured upto 24 hrs by LC-MS/MS analysis
# Type: ADME, organism-based
# DETAILS: in vivo
METRIC: bioavailability (%)

Example entries begin here.
CNC(=O)c1cc(C(=O)N[C@H]2C[C@@H]2C)cc2c1OC[C@@]2(CO)c1ccccc1 : 38
CNC(=O)c1cc(C(=O)N[C@H]2[C@@H]3COC[C@@H]32)cc2c1OC[C@@]2(C)c1ccccc1 : 54

a = CNC(=O)c1cc(C(=O)NC2CC2)cc2c1OC[C@H]2c1ccccc1
b = CNC(=O)c1cc(C(=O)N[C@H]2[C@@H]3C[C@@H](O)C[C@@H]32)cc2c1OC[C@@]2(C)c1ccccc1
Looking at a and b , which one comes out lower in bioavailability terms? Pick one; state its label. b
(b: 32%, a: 47%)

---

# ASSAY_NOTES: Volume of distribution at steady state in Beagle dog at 0.5 mg/kg, iv measured upto 24 hrs by LC-MS/MS analysis
# Assay type: ADME, organism-based, Canis lupus familiaris
# DETAILS: in vivo, read-out: Vdss
METRIC: Vd (L/kg)
# output: bare number, implied unit L/kg

Can you look up the measured Vd of CNC(=O)c1cc(C(=O)N[C@H]2[C@@H]3C[C@@H](O)C[C@@H]32)cc2c1OC[C@@]2(C)c1ccccc1 for me? 0.9

---

# ASSAY_NOTES: Unbound clearance in Wistar Han rat at 1 mg/kg, iv measured upto 7 hrs by LC-MS/MS analysis
# Assay type: ADME, organism-based
# DETAILS: in vivo
METRIC: CL free (mL/min/kg)

Example entries begin here.
CNC(=O)c1cc(C(=O)N[C@H]2C[C@@H]2C)cc2c1OC[C@@]2(CO)c1ccccc1 : 340
CNC(=O)c1cc(C(=O)N[C@H]2[C@@H]3COC[C@@H]32)cc2c1OC[C@@]2(C)c1ccccc1 : 274

P = CNC(=O)c1cc(C(=O)N[C@H]2[C@@H]3C[C@@H](O)C[C@@H]32)cc2c1OC[C@@]2(C)c1ccccc1
Q = CNC(=O)c1cc(C(=O)NC2CC2)cc2c1OC[C@H]2c1ccccc1
For the two items P and Q , which reports the higher CL free value? Pick one; state its label. Q

---

# ASSAY_NOTES: Lipophilicity, logD of compound at pH 7.4
# Assay type: physicochemical
# DETAILS: buffer
METRIC: logD

CNC(=O)c1cc(C(=O)NCCC[C@H]2OC[C@H](N)CO2)cc2c1O[C@H](CF)[C@H]2c1ccccc1 : 2.9

A = CNC(=O)c1cc(C(=O)NC2CC2)cc2c1OC[C@H]2c1cccc(OC)c1 (racemic)
B = CNC(=O)c1cc(C(=O)NCCC[C@H]2OC[C@H](N)CO2)cc2c1OC[C@H]2c1ccccc1
Looking at A and B , which one comes out lower in logD terms? Pick one; state its label. B

---

# ASSAY_NOTES: LBF in Wistar Han rat at 1 mg/kg, iv measured upto 7 hrs by LC-MS/MS analysis
# Type: ADME, organism-based
# DETAILS: in vivo
METRIC: LBF (%)

CNC(=O)c1cc(C(=O)NC2CC2)cc2c1OC[C@H]2c1ccccc1 : 43
CNC(=O)c1cc(C(=O)N[C@H]2[C@@H]3COC[C@@H]32)cc2c1OC[C@@]2(C)c1ccccc1 : 77
CNC(=O)c1cc(C(=O)N[C@H]2[C@@H]3C[C@@H](O)C[C@@H]32)cc2c1OC[C@@]2(C)c1ccccc1 : 69
CNC(=O)c1cc(C(=O)N[C@H]2C[C@@H]2C)cc2c1OC[C@@]2(CO)c1ccccc1 : 60

---

# ASSAY_NOTES: Metabolic stability in rat Hepatocyte assessed as intrinsic clearance at 0.5 uM incubated for 60 mins by LC-MS/MS analysis
# Type: ADME, tissue-based
# DETAILS: hepatocytes, 1 h
METRIC: CLH (mL/min/g)

Example entries begin here.
CNC(=O)c1cc(C(=O)NC2CC2)cc2c1O[C@H](CF)[C@H]2c1ccccc1 : 3.2
CNC(=O)c1cc(C(=O)N[C@H]2[C@@H]3C[C@@H](O)C[C@@H]32)cc2c1OC[C@@]2(C)c1ccccc1 : 1
CNC(=O)c1cc(C(=O)NC2CC2)cc2c1OC[C@H]2c1cccc(F)c1 : 10
CNC(=O)c1cc(C(=O)N[C@H]2[C@@H]3COC[C@@H]32)cc2c1OC[C@H]2c1ccccc1C : 30.9
CNC(=O)c1cc(C(=O)NC2CC2)cc2c1OC[C@@]2(C)c1ccccc1 : 6.7
CNC(=O)c1cc(C(=O)NCCC[C@H]2OC[C@H](N)CO2)cc2c1O[C@H](CF)[C@H]2c1ccccc1 : 1.1

1 = CNC(=O)c1cc(C(=O)NC2CC2)cc2c1OC[C@H]2c1ccccc1
2 = CNC(=O)c1cc(C(=O)N[C@H]2[C@@H]3C[C@@H](O)C[C@@H]32)cc2c1OC[C@H]2c1ccccc1
3 = CNC(=O)c1cc(C(=O)N[C@H]2[C@@H]3C[C@H](O)C[C@@H]32)cc2c1OC[C@@]2(C)c1ccccc1
4 = CNC(=O)c1cc(C(=O)Nc2cnn(C)c2)cc2c1OC[C@H]2c1ccccc1
5 = CNC(=O)c1cc(C(=O)N[C@H]2[C@@H]3COC[C@@H]32)cc2c1OC[C@@]2(CO)c1ccccc1
Order the records, beginning with the lowest CLH and ending with the highest. Labels, ranked as asked. 5, 1, 2, 3, 4

a = CNC(=O)c1cc(C(=O)N[C@H]2[C@@H]3COC[C@@H]32)cc2c1OC[C@H]2c1cccc2[nH]ccc12
b = CNC(=O)c1cc(C(=O)N[C@H]2[C@@H]3COC[C@@H]32)cc2c1O[C@H](CF)[C@H]2c1ccccc1 [GSK973]
For the two items a and b , which reports the higher CLH value? Pick one; state its label. a

A = CNC(=O)c1cc(C(=O)NC)c2c(c1)[C@H](c1ccccc1)[C@@H](CF)O2
B = CNC(=O)c1cc(C(=O)NC2CC2)cc2c1OC[C@H]2c1cccc2[nH]ccc12
For the two items A and B , which reports the higher CLH value? Pick one; state its label. B

A = CNC(=O)c1cc(C(=O)NCCc2cnn(C)c2)cc2c1OC[C@H]2c1cccc2[nH]ccc12
B = CNC(=O)c1cc(C(=O)N[C@H]2[C@@H]3COC[C@@H]32)cc2c1OC[C@H]2c1ccccc1
Looking at A and B , which one comes out lower in CLH terms? Pick one; state its label. B

---

# ASSAY_NOTES: Volume of distribution at steady state in Wistar Han rat at 1 mg/kg, iv measured upto 7 hrs by LC-MS/MS analysis
# Assay type: ADME, organism-based
# DETAILS: in vivo, read-out: Vdss
METRIC: Vd (L/kg)

CNC(=O)c1cc(C(=O)N[C@H]2C[C@@H]2C)cc2c1OC[C@@]2(CO)c1ccccc1 : 1.2

I = CNC(=O)c1cc(C(=O)N[C@H]2[C@@H]3C[C@@H](O)C[C@@H]32)cc2c1OC[C@@]2(C)c1ccccc1
II = CNC(=O)c1cc(C(=O)N[C@H]2[C@@H]3COC[C@@H]32)cc2c1OC[C@@]2(C)c1ccccc1
III = CNC(=O)c1cc(C(=O)NC2CC2)cc2c1OC[C@H]2c1ccccc1
Output the entries ranked by Vd from maximum down to minimum. Labels, ranked as asked. I, II, III
(I: 2.3 L/kg, II: 1.6 L/kg, III: 0.6 L/kg)

---

# ASSAY_NOTES: Metabolic stability in dog Hepatocyte assessed as intrinsic clearance at 0.5 uM incubated for 60 mins by LC-MS/MS analysis
# Format: ADME, tissue-based, Canis lupus familiaris
# DETAILS: hepatocytes, 1 h
// reported CLH per item

Example entries begin here.
CNC(=O)c1cc(C(=O)NC2CC2)cc2c1OC[C@H]2c1ccccc1 : < 0.7 mL/min/g
CNC(=O)c1cc(C(=O)N[C@H]2[C@@H]3COC[C@@H]32)cc2c1OC[C@@]2(C)c1ccccc1 : < 0.7 mL/min/g
CNC(=O)c1cc(C(=O)N[C@H]2[C@@H]3C[C@@H](O)C[C@@H]32)cc2c1OC[C@@]2(C)c1ccccc1 : < 0.7 mL/min/g

Now, please, on to the next compound.
Can you look up the measured CLH of CNC(=O)c1cc(C(=O)N[C@H]2C[C@@H]2C)cc2c1OC[C@@]2(CO)c1ccccc1 for me? 1 mL/min/g

---

# ASSAY_NOTES: Metabolic stability in rat Hepatocyte assessed as intrinsic clearance at 0.5 uM incubated for 60 mins by LC-MS/MS analysis
# Format: ADME, tissue-based
# DETAILS: hepatocytes, 1 h
METRIC: CLH (mL/min/g)

a = CNC(=O)c1cc(C(=O)N[C@H]2[C@@H]3COC[C@@H]32)cc2c1OC[C@H]2c1ccc(F)cc1
b = CCC(=O)N1C[C@@H]2[C@H](C1)[C@H]2NC(=O)c1cc(C(=O)NC)c2c(c1)[C@H](c1ccccc1)CO2
c = CNC(=O)c1cc(C(=O)N[C@H]2C[C@@H]2C)cc2c1OC[C@@]2(CO)c1ccccc1
d = CNC(=O)c1cc(C(=O)N[C@H]2[C@@H]3COC[C@@H]32)cc2c1OC[C@@]2(C)c1ccccc1
Let's sort these by CLH, smallest first. Go ahead? Labels, ranked as asked. d, c, b, a
